conditions: in methanol, 318.15 K
QUANTITY_MEASURED: solubility (mole fraction)
Form field (numeric): enter value without unit.

Query CCC[C@@H]1CC(=O)N([C@@H](CC)C(N)=O)C1 yields solubility (mole fraction) of 0.557

---

conditions: in ethanol, 313.15 K
QUANTITY_MEASURED: solubility (mole fraction)

response.value for CCC[C@@H]1CC(=O)N([C@@H](CC)C(N)=O)C1 (field: solubility (mole fraction)) = 0.466

---

settings: in ethyl acetate, 303.15 K
QUANTITY_MEASURED: solubility (mole fraction)
Write the value as a bare number.

solubility (mole fraction) for CCC[C@@H]1CC(=O)N([C@@H](CC)C(N)=O)C1 is 0.201

---

conditions: in isopropyl acetate, 278.15 K
QUANTITY_MEASURED: solubility (mole fraction)
Give only the figure.

For CCC[C@@H]1CC(=O)N([C@@H](CC)C(N)=O)C1 the molecule record lists solubility (mole fraction) as 0.0322

---

settings: in n-hexane, 278.15 K
QUANTITY_MEASURED: solubility (mole fraction)
Form rule: numeric answer, no unit written next to it.

Reported solubility (mole fraction) ( CCC[C@@H]1CC(=O)N([C@@H](CC)C(N)=O)C1 ) = 4.1e-05

---

conditions: in isopropanol, 278.15 K
QUANTITY_MEASURED: solubility (mole fraction)
Write the value as a bare number.

For record CCC[C@@H]1CC(=O)N([C@@H](CC)C(N)=O)C1 the listed solubility (mole fraction) is 0.127

---

settings: in MTBE, 318.15 K
QUANTITY_MEASURED: solubility (mole fraction)
Give only the figure.

Recorded solubility (mole fraction) (molecule CCC[C@@H]1CC(=O)N([C@@H](CC)C(N)=O)C1 ): 0.291

---

conditions: in n-butyl acetate, 288.15 K
QUANTITY_MEASURED: solubility (mole fraction)
Output spec: single numeric token, no unit.

Measured solubility (mole fraction) of CCC[C@@H]1CC(=O)N([C@@H](CC)C(N)=O)C1 : 0.0428

---

conditions: in n-propanol, 298.15 K
QUANTITY_MEASURED: solubility (mole fraction)
Simply state the number, no unit and no words.

CCC[C@@H]1CC(=O)N([C@@H](CC)C(N)=O)C1 has a reported solubility (mole fraction) of 0.28

---

settings: in n-propanol, 293.15 K
QUANTITY_MEASURED: solubility (mole fraction)
Just the number.

solubility (mole fraction) measured on CCC[C@@H]1CC(=O)N([C@@H](CC)C(N)=O)C1 = 0.245

---

settings: in n-heptane, 313.15 K
QUANTITY_MEASURED: solubility (mole fraction)
// keep it numeric: no unit symbol after the value

Form: compound = CCC[C@@H]1CC(=O)N([C@@H](CC)C(N)=O)C1 ; solubility (mole fraction) = 0.000249

---

conditions: in n-butyl acetate, 303.15 K
QUANTITY_MEASURED: solubility (mole fraction)
Please reply with the number alone, leaving off any unit.

compound CCC[C@@H]1CC(=O)N([C@@H](CC)C(N)=O)C1 , solubility (mole fraction) observed: 0.108

---

conditions: in isopropyl acetate, 283.15 K
QUANTITY_MEASURED: solubility (mole fraction)
Field format: numeric only.

Summary for this compound, CCC[C@@H]1CC(=O)N([C@@H](CC)C(N)=O)C1 : solubility (mole fraction) is 0.0429

---

settings: in ethanol, 288.15 K
QUANTITY_MEASURED: solubility (mole fraction)
Enter the number alone.

# molecule CCC[C@@H]1CC(=O)N([C@@H](CC)C(N)=O)C1 ; its solubility (mole fraction) = 0.258

---

conditions: in isopropanol, 303.15 K
QUANTITY_MEASURED: solubility (mole fraction)
// keep it numeric: no unit symbol after the value

The reported solubility (mole fraction) of the compound CCC[C@@H]1CC(=O)N([C@@H](CC)C(N)=O)C1 was 0.287

---

details: in ethyl acetate, 278.15 K
QUANTITY_MEASURED: solubility (mole fraction)
Response field accepts a number only; no unit should be typed.

Given item CCC[C@@H]1CC(=O)N([C@@H](CC)C(N)=O)C1 , the value recorded as its solubility (mole fraction) is 0.0369

---

settings: in ethanol, 308.15 K
QUANTITY_MEASURED: solubility (mole fraction)
In your answer, state the number alone without any accompanying words.

Form: compound = CCC[C@@H]1CC(=O)N([C@@H](CC)C(N)=O)C1 ; solubility (mole fraction) = 0.415

---

details: in isopropanol, 318.15 K
QUANTITY_MEASURED: solubility (mole fraction)
Output: the number by itself.

Record summary for CCC[C@@H]1CC(=O)N([C@@H](CC)C(N)=O)C1 : reported solubility (mole fraction) = 0.445

---

settings: in n-hexane, 298.15 K
QUANTITY_MEASURED: solubility (mole fraction)
Number only, please.

Reported solubility (mole fraction) of CCC[C@@H]1CC(=O)N([C@@H](CC)C(N)=O)C1 : 0.00018

---

conditions: in n-heptane, 308.15 K
QUANTITY_MEASURED: solubility (mole fraction)
Please state the value as a number alone, without comment.

solubility (mole fraction) measured on CCC[C@@H]1CC(=O)N([C@@H](CC)C(N)=O)C1 = 0.000168

---

conditions: in diisopropyl ether, 293.15 K
QUANTITY_MEASURED: solubility (mole fraction)
Write no unit; give the number alone.

The molecule listed as CCC[C@@H]1CC(=O)N([C@@H](CC)C(N)=O)C1 shows solubility (mole fraction) equal to 0.00327

---

conditions: in ethyl formate, 323.15 K
QUANTITY_MEASURED: solubility (mole fraction)
Please give only the number in your answer, with no unit.

Looking up CCC[C@@H]1CC(=O)N([C@@H](CC)C(N)=O)C1 , I see its solubility (mole fraction) listed as 0.519

---

conditions: in isopropanol, 288.15 K
QUANTITY_MEASURED: solubility (mole fraction)
Give the figure only, with no unit attached.

# solubility (mole fraction) (compound: CCC[C@@H]1CC(=O)N([C@@H](CC)C(N)=O)C1 ) is 0.186

---

conditions: in isopropyl acetate, 298.15 K
QUANTITY_MEASURED: solubility (mole fraction)
I only need the number, thanks.

Please fill in: solubility (mole fraction) reported for CCC[C@@H]1CC(=O)N([C@@H](CC)C(N)=O)C1 = 0.109

---

conditions: in n-heptane, 323.15 K
QUANTITY_MEASURED: solubility (mole fraction)
Just the number.

Given item CCC[C@@H]1CC(=O)N([C@@H](CC)C(N)=O)C1 , the value recorded as its solubility (mole fraction) is 0.000493

---

conditions: in diisopropyl ether, 303.15 K
QUANTITY_MEASURED: solubility (mole fraction)
I only need the number, thanks.

response.value for CCC[C@@H]1CC(=O)N([C@@H](CC)C(N)=O)C1 (field: solubility (mole fraction)) = 0.00618

---

settings: in n-propanol, 318.15 K
QUANTITY_MEASURED: solubility (mole fraction)
Just the number, please.

// solubility (mole fraction) lookup, molecule = CCC[C@@H]1CC(=O)N([C@@H](CC)C(N)=O)C1 , result: 0.475

---

details: in methanol, 278.15 K
QUANTITY_MEASURED: solubility (mole fraction)
# output: bare number, no unit

// field: solubility (mole fraction); key: CCC[C@@H]1CC(=O)N([C@@H](CC)C(N)=O)C1 ; value = 0.234

---

details: in isopropyl acetate, 318.15 K
QUANTITY_MEASURED: solubility (mole fraction)
Enter the number alone.

The recorded solubility (mole fraction) for CCC[C@@H]1CC(=O)N([C@@H](CC)C(N)=O)C1 is 0.365

---

conditions: in isopropanol, 308.15 K
QUANTITY_MEASURED: solubility (mole fraction)

Entry under test: CCC[C@@H]1CC(=O)N([C@@H](CC)C(N)=O)C1 . Its solubility (mole fraction) was 0.341

---

conditions: in isopropyl acetate, 288.15 K
QUANTITY_MEASURED: solubility (mole fraction)

The recorded solubility (mole fraction) for entry CCC[C@@H]1CC(=O)N([C@@H](CC)C(N)=O)C1 equals 0.0625

---

settings: in MTBE, 298.15 K
QUANTITY_MEASURED: solubility (mole fraction)
// no unit string in output, number only

// sample CCC[C@@H]1CC(=O)N([C@@H](CC)C(N)=O)C1 , its solubility (mole fraction) was 0.0496

---

settings: in n-heptane, 288.15 K
QUANTITY_MEASURED: solubility (mole fraction)
Note: the reply should be a number with no unit written.

Lab note: CCC[C@@H]1CC(=O)N([C@@H](CC)C(N)=O)C1 gave solubility (mole fraction) of 3.36e-05

---

settings: in n-hexane, 318.15 K
QUANTITY_MEASURED: solubility (mole fraction)

What the record says about CCC[C@@H]1CC(=O)N([C@@H](CC)C(N)=O)C1 : solubility (mole fraction) is 0.000524
